target: plasma purified human complement protein C3 (human) (UniProt P01024); assay: cell-based or functional assay
Sequence (P01024 23-667, chain 1 of 2): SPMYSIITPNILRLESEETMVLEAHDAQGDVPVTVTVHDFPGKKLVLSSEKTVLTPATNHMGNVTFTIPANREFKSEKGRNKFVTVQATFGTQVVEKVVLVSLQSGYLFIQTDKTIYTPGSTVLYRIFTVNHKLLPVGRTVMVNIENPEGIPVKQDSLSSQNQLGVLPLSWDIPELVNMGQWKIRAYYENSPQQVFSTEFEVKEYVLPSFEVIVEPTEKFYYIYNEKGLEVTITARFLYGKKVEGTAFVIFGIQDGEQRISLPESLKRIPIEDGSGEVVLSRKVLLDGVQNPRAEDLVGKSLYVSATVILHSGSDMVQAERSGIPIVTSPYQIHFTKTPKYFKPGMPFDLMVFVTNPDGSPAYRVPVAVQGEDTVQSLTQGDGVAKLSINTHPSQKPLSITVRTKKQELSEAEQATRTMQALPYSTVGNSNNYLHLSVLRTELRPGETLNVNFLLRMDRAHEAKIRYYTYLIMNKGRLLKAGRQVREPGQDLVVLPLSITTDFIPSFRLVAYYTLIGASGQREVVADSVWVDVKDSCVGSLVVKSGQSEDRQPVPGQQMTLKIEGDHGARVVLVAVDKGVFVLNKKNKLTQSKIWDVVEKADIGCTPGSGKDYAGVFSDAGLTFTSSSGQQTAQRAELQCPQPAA
Sequence (P01024 672-1663, chain 2 of 2): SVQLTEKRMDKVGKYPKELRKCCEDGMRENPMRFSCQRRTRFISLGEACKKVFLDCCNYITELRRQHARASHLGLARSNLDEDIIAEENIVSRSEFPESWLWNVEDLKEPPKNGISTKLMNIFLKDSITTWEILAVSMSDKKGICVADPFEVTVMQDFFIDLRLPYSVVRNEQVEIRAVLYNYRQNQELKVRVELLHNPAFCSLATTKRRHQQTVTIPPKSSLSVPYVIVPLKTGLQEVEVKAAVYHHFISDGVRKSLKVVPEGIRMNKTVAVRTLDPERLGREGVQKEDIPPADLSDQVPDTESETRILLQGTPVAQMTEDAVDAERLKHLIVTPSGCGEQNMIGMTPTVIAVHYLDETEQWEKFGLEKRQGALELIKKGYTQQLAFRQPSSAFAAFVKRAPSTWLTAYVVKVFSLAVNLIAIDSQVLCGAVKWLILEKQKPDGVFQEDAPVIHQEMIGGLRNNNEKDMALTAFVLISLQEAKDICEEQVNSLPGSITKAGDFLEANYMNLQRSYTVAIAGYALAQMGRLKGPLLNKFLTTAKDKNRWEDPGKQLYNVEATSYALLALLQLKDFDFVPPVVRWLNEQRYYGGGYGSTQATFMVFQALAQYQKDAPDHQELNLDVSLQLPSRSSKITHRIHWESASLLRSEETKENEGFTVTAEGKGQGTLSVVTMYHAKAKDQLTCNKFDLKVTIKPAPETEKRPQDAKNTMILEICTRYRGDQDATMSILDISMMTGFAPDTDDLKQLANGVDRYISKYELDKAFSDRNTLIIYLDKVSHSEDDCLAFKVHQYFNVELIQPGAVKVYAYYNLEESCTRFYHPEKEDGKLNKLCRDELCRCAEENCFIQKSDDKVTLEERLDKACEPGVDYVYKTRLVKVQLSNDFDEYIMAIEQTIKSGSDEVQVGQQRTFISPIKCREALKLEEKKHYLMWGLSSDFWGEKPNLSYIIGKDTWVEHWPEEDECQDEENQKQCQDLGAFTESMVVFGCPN
Property: EC50 of hC3 cleavage
Provide the measurement as a number trailed by its unit.

Use the examples below as a reference point.
| Binder | EC50 of hC3 cleavage |
| --- | --- |
| MTSP-1 F97D/ins97aV/T98P/F99L/C122S/G151N/Q175L/Q192E (enzyme) VVGGTDADEGEWPWQVSLHALGQGHICGASLISPNWLVSAAHCYIDDRGFRYSDPTQWTAFLGLHDQSQRSAPGVQERRLKRIISHPFFNDDVPLDYDIALLELEKPAEYSSMVRPISLPDASHVFPAGKAIWVTGWGHTQYGGTNALILQKGEIRVINQTTCENLLPQLITPRMMCVGFLSGGVDSCEGDSGGPLSSVEADGRIFQAGVVSWGDGCAQRNKPGVYTRLPLFRDWIKENTGV | 194 nM |
| MTSP-1 Q38R/I41V/D60bV/F60eV/Y60gF/ins97aE/F97T/T98G/F99L/C122S/Q175L/Q192G (enzyme) VVGGTDADEGEWPWQVSLHALGRGHVCGASLISPNWLVSAAHCYIDVRGVRFSDPTQWTAFLGLHDQSQRSAPGVQERRLKRIISHPFFNDTEGLDYDIALLELEKPAEYSSMVRPISLPDASHVFPAGKAIWVTGWGHTQYGGTGALILQKGEIRVINQTTCENLLPQLITPRMMCVGFLSGGVDSCGGDSGGPLSSVEADGRIFQAGVVSWGDGCAQRNKPGVYTRLPLFRDWIKENTGV | 18.3 nM |

From here, focus on the item given below.
# input binder: MTSP-1 H40R/I41H/F97D/F99L/C122S/G151N/Q192H/P232S (enzyme) VVGGTDADEGEWPWQVSLHALGQGRHCGASLISPNWLVSAAHCYIDDRGFRYSDPTQWTAFLGLHDQSQRSAPGVQERRLKRIISHPFFNDDTLDYDIALLELEKPAEYSSMVRPISLPDASHVFPAGKAIWVTGWGHTQYGGTNALILQKGEIRVINQTTCENLLPQQITPRMMCVGFLSGGVDSCHGDSGGPLSSVEADGRIFQAGVVSWGDGCAQRNKPGVYTRLSLFRDWIKENTGV ; wanted: its EC50 of hC3 cleavage
262 nM

Hello, the source for this data is patent US20240018502A1, in case you need it.
